Quick note: these are IC50 numbers for system: Sodium-dependent dopamine transporter (Rattus norvegicus)
Sequence (P23977 whole entry): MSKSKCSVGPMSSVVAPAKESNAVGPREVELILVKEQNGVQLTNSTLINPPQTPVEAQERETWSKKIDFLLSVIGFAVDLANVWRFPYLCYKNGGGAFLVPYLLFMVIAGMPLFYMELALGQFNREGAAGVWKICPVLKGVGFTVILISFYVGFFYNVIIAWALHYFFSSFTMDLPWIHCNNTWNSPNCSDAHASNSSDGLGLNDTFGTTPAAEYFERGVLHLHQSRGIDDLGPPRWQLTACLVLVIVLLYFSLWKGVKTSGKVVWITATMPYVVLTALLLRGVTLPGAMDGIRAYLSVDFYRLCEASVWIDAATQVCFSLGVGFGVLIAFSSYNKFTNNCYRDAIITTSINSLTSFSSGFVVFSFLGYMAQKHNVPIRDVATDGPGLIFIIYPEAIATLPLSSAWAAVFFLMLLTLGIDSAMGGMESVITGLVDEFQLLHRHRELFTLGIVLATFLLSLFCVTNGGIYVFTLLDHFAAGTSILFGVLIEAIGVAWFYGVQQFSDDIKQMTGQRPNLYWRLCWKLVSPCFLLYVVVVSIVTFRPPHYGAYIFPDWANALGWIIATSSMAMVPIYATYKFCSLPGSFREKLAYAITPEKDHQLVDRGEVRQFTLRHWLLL

compound: CNc1c2c(nc3ccccc13)CCCC2O (centres undefined)
observed-value: > 20 µM
//
compound: Nc1c2c(nc3ccccc13)CCCC2O (centres undefined)
observed-value: > 20 µM
//
compound: Nc1c2c(nc3cc(Cl)ccc13)CCCC2O (centres undefined)
observed-value: > 20 µM

Under Sodium-dependent dopamine transporter (Rattus norvegicus), report IC50 for CCCNc1c2c(nc3ccccc13)CCCC2O (centres undefined)
> 20 µM

* * *

System: Acetylcholinesterase (Rattus norvegicus, UniProt P37136) | Read-out: pIC50
Sequence (P37136 whole entry): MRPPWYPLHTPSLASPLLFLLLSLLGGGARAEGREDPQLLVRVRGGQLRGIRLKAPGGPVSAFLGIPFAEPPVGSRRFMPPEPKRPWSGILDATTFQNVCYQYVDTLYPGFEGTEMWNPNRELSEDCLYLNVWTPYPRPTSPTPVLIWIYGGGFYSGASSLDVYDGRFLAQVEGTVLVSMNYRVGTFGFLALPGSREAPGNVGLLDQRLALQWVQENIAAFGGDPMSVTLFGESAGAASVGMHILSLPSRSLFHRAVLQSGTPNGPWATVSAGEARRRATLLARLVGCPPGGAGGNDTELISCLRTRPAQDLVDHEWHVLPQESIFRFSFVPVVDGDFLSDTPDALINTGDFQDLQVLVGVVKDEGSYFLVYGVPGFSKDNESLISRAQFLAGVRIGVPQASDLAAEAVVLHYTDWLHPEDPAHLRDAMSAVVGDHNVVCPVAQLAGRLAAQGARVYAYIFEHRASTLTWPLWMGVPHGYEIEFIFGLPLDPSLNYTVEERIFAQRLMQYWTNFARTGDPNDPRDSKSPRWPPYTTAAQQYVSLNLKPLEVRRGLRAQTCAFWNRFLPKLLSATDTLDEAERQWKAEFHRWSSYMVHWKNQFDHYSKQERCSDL
Conceptually, pIC50 converts a concentration in mol/L into minus its log10.

Known results for compounds:
compound: O=C(O)/C=C/C(=O)O.OC1CCCc2nc3ccccc3c(NCc3c(F)c(F)c(F)c(F)c3F)c21 (centres undefined)
pIC50: 4.90
//
compound: CCCNc1c2c(nc3ccccc13)CCCC2O (centres undefined)
pIC50: 4.88
//
compound: OC1CCCc2nc3ccccc3c(NCc3ccccc3C(F)(F)F)c21 (centres undefined)
pIC50: 4.88

Consider the additional compound presented here.
Report measured pIC50 on Acetylcholinesterase (Rattus norvegicus, UniProt P37136); entry: COc1ccc(CNc2c3c(nc4ccccc24)CCCC3O)cc1 (centres undefined)
4.96
